Origin of values: patent US20230265151A1

- Target under test: T1, human glucagon receptor (human, UniProt P47871 26-477)
- T1 construct: whole, on cells; also called hGCGR; hGcgR
- T1 sequence (P47871 26-477): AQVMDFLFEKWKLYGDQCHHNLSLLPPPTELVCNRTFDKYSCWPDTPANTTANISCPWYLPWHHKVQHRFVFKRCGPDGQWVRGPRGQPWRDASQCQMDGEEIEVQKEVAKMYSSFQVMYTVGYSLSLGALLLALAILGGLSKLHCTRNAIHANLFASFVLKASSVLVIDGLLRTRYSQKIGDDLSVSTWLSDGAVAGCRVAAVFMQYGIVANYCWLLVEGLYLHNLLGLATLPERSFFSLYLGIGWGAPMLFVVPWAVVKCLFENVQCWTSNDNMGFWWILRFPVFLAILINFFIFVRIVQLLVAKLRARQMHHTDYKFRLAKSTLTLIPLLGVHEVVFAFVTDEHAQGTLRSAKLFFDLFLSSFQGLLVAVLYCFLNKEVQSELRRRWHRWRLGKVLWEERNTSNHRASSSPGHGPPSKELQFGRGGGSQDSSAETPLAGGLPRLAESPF
- Assay explanation: SPA competition vs [125I]-Gcg, hGcgR membranes
pKi: −log10 of the molar value.
Label class 1 when pKi is at or above 7; anything below gets class 0.

# Binder, Label class
rows = [
    ("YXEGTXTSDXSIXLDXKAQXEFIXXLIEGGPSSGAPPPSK (Aib2, αMeF(2F)6, 4Pal10, αMeL13, Orn16, K17(Z1), Aib20, D-Glu24, αMeY25, K40(Z1), C-term NH2; Z1=AEEA2-(γ-Glu)-CO-(CH2)14-CH3)", "class 1"),
    ("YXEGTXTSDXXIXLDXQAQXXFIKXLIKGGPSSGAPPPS (Aib2, αMeF(2F)6, 4Pal10, Aib11, αMeL13, Orn16, Aib20, Orn21, K24(Z1), αMeY25, K28(Z1), C-term NH2; Z1=AEEA-(γ-Glu)-(10-(4-carboxyphenoxy)decanoyl))", "class 1"),
    ("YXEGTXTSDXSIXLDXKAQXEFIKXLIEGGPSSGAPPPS (Aib2, αMeF(2F)6, 4Pal10, αMeL13, Orn16, K17(Z1), Aib20, K24(Z1), αMeY25, C-term NH2; Z1=AEEA2-(γ-Glu)-CO-(CH2)14-CH3)", "class 1"),
]

Query string: Textbook exercise: given the entry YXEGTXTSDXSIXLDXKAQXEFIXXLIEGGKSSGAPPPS (Aib2, αMeF(2F)6, hTyr10, αMeL13, Orn16, K17(Z1), Aib20, D-Glu24, αMeY25, K31(Z1), C-term NH2; Z1=AEEA2-(γ-Glu)-CO-(CH2)12-CO2H) , state whether its pKi is greater than or equal to 7.
Result string: class 0
